Molecular target: T1, Plasma antichymotrypsin (ACT) (UniProt P01011 24-423)
T1 construct: also called plasma ACT
T1 sequence (looked up): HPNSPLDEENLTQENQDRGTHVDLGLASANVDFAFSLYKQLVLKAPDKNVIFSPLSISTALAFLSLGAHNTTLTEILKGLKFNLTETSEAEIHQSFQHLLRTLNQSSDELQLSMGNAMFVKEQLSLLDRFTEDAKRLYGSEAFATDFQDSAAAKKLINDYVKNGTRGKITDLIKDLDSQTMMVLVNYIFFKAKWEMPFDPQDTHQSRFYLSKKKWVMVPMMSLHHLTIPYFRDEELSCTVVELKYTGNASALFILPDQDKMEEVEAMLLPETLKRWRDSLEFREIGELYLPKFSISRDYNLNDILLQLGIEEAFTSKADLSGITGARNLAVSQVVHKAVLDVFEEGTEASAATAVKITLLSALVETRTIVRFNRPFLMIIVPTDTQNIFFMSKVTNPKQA
Assay: serpin inhibition of the protease
Values of kapp greater than or equal to 300 M⁻¹ s⁻¹ map to true; values below map to false.

# check: kapp of chymase C22S/F173Y/D175N/A226R (enzyme, also called MS No. 18) IIGGTESKPHSRPYMAYLEIVTSNGPSKFCGGFLIRRNFVLTAAHCAGRSITVTLGAHNITEEEDTWQKLEVIKQFRHPKYNTSTLHHDIMLLKLKEKASLTLAVGTLPFPSQFNFVPPGRMCRVAGWGRTGVLKPGSDTLQEVKLRLMDPQACSHYRNFDHNLQLCVGNPRKTKSAFKGDSGGPLLCAGVAQGIVSYGRSDAKPPRVFTRISHYRPWINQILQAN is greater than or equal to 300 M⁻¹ s⁻¹
true

Lookup chymase C22S/K40L/F41H/L99N/F173Y/D175N/S218L/A226R (enzyme, also called MS No. 16) IIGGTESKPHSRPYMAYLEIVTSNGPSLHCGGFLIRRNFVLTAAHCAGRSITVTLGAHNITEEEDTWQKLEVIKQFRHPKYNTSTNHHDIMLLKLKEKASLTLAVGTLPFPSQFNFVPPGRMCRVAGWGRTGVLKPGSDTLQEVKLRLMDPQACSHYRNFDHNLQLCVGNPRKTKSAFKGDSGGPLLCAGVAQGIVSYGRLDAKPPRVFTRISHYRPWINQILQAN
false

Same thing, different binder: chymase C22S/A190S/A226R (enzyme) IIGGTESKPHSRPYMAYLEIVTSNGPSKFCGGFLIRRNFVLTAAHCAGRSITVTLGAHNITEEEDTWQKLEVIKQFRHPKYNTSTLHHDIMLLKLKEKASLTLAVGTLPFPSQFNFVPPGRMCRVAGWGRTGVLKPGSDTLQEVKLRLMDPQACSHFRDFDHNLQLCVGNPRKTKSSFKGDSGGPLLCAGVAQGIVSYGRSDAKPPRVFTRISHYRPWINQILQAN
true

Same thing, different binder: chymase C22S/K40L/F41L/L99N/G151H/F173Y/S218V/A226R (enzyme) IIGGTESKPHSRPYMAYLEIVTSNGPSLLCGGFLIRRNFVLTAAHCAGRSITVTLGAHNITEEEDTWQKLEVIKQFRHPKYNTSTNHHDIMLLKLKEKASLTLAVGTLPFPSQFNFVPPGRMCRVAGWGRTGVLKPHSDTLQEVKLRLMDPQACSHYRDFDHNLQLCVGNPRKTKSAFKGDSGGPLLCAGVAQGIVSYGRVDAKPPRVFTRISHYRPWINQILQAN
false

chymase C22S/A226R (enzyme) IIGGTESKPHSRPYMAYLEIVTSNGPSKFCGGFLIRRNFVLTAAHCAGRSITVTLGAHNITEEEDTWQKLEVIKQFRHPKYNTSTLHHDIMLLKLKEKASLTLAVGTLPFPSQFNFVPPGRMCRVAGWGRTGVLKPGSDTLQEVKLRLMDPQACSHFRDFDHNLQLCVGNPRKTKSAFKGDSGGPLLCAGVAQGIVSYGRSDAKPPRVFTRISHYRPWINQILQAN ?
true
